Assay: qHTS assay to identify small molecule antagonists of the retinoid-related orphan receptor gamma (ROR-gamma) signaling pathway - cell viability counter screen (AID 1159520); note: nearly all actives have a fitted effect of over 50% in size
Details: Tet-on RORgamma CHO cells viability, ATP luminescence, 16 h; series mostly up to 92.4 µM
Results filed as inconclusive are left out. Active and inactive are the calls of the source. Calls come from the whole dose curve; as a rule, active = well fitted cell-killing curve with a large enough effect in the repeat runs; inconclusive = weak or mixed curves, or effect the other way; inactive = no such curve, though single readings can be large or run the other way.
Value Kind: outcome

GET /values?readout=outcome&item= `CCC[C@H](N[C@@H](C)C(=O)N1[C@H](C(=O)O)C[C@@H]2CCCC[C@@H]21)C(=O)OCC` inactive

Would you kindly repeat that for `O=C(O)c1cn(-c2ccc(F)cc2)c2cc(N3CCNCC3)c(F)cc2c1=O` ? inactive

Would you kindly repeat that for `CCC(CO)(CO)COCC(CC)(CO)CO` ? inactive

Hello, the source for this data is PubChem BioAssay (Tox21), in case you need it.
